System: HEK-293T
EXPERIMENT DESCRIPTION: Multiplex assay against HEK293T
Format: toxicity, cell-based
RUN PARAMETERS: human, 12 h, 1 µM, compound concentration 1 uM, replicate 1
Threshold 60%. Population Mitotic Cells (%) below it: fulfilled. Population Mitotic Cells (%) at it or above: not fulfilled.

>  <COMPOUND>
C[C@H](N)COC(=O)[C@@H](CCCCN)NC(=O)Cc1c(-c2ccc3ccccc3c2)[nH]c2c1ccc1ccccc12

>  <ASSIGNED LABEL>
not fulfilled

$$$$
>  <COMPOUND>
CCCCC(=O)N(Cc1ccc(-c2ccccc2-c2nnn[nH]2)cc1)[C@H](C(=O)O)C(C)C

>  <ASSIGNED LABEL>
fulfilled

$$$$
>  <COMPOUND>
CCCCCC(O)/C=C/[C@H]1C(=O)CC(O)C1C/C=C\CCCC(=O)O (some centres undefined)

>  <ASSIGNED LABEL>
not fulfilled

$$$$
>  <COMPOUND>
CN[C@@H](C)C(=O)N[C@H](C(=O)N1CCC[C@H]1C(=O)Nc1snnc1-c1ccccc1)C1CCCCC1 [GDC-0152]

>  <ASSIGNED LABEL>
not fulfilled

$$$$
>  <COMPOUND>
Cc1onc(-c2ccccc2Cl)c1C(=O)N(C)c1ccc(Cl)cc1

>  <ASSIGNED LABEL>
not fulfilled

$$$$
>  <COMPOUND>
N#Cc1c(Oc2cccc(OS(=O)(=O)CCCC(F)(F)F)c2)cccc1C(F)(F)F

>  <ASSIGNED LABEL>
not fulfilled

$$$$
>  <COMPOUND>
CCc1cc2cc(NS(=O)(=O)c3ccc(C#N)cc3)ccc2n(CC)c1=O

>  <ASSIGNED LABEL>
fulfilled

$$$$
>  <COMPOUND>
CC(=O)Nc1cccc2c1c(Sc1ccc(Cl)cc1)c(C)n2CC(=O)O [AZD1981]

>  <ASSIGNED LABEL>
not fulfilled

$$$$
>  <COMPOUND>
O=C(CCCc1ccccc1)Nc1nc2ccccc2c(=O)s1

>  <ASSIGNED LABEL>
not fulfilled

$$$$
>  <COMPOUND>
NCCc1cn(S(=O)(=O)c2c(Cl)nc3sccn23)c2ccccc12.O=C(O)C(=O)O

>  <ASSIGNED LABEL>
not fulfilled

$$$$
>  <COMPOUND>
CCCCC1=NC2(CCCC2)C(=O)N1Cc1ccc(-c2ccccc2-c2nnn[nH]2)cc1 [IRBESARTAN]

>  <ASSIGNED LABEL>
not fulfilled

$$$$
>  <COMPOUND>
CC(C)(C)c1cc(NC(=O)Nc2ccc(-c3cn4c(n3)sc3cc(OCCN5CCOCC5)ccc34)cc2)no1 [QUIZARTINIB]

>  <ASSIGNED LABEL>
not fulfilled

$$$$
>  <COMPOUND>
COC[C@@H](c1ccc(C(F)(F)F)cc1)N1CCN(C2(C)CCN(C(=O)c3c(C)ncnc3C)CC2)C[C@@H]1C.O=C(O)/C=C\C(=O)O [VICRIVIROC MALEATE]

>  <ASSIGNED LABEL>
fulfilled

$$$$
>  <COMPOUND>
Cc1sc2c(c1C)C(c1ccc(Cl)cc1)=N[C@@H](CC(=O)NCCCCCCCCNC(=O)COc1cccc3c1C(=O)N(C1CCC(=O)NC1=O)C3=O)c1nnc(C)n1-2 (some centres undefined)

>  <ASSIGNED LABEL>
fulfilled

$$$$
>  <COMPOUND>
CC(/C=C1\SC(=S)N(CCCC(=O)Nc2ccc(C(=O)O)c(O)c2)C1=O)=C\c1ccccc1

>  <ASSIGNED LABEL>
not fulfilled

$$$$
>  <COMPOUND>
Cc1noc(-c2ccc(-c3ccc(CC(=O)O)cc3)cc2)c1NC(=O)O[C@H](C)c1ccccc1Cl

>  <ASSIGNED LABEL>
not fulfilled

$$$$
>  <COMPOUND>
CN(C)C(=O)Cn1cc(-c2ccc(-c3cncc4ccccc34)cc2)cn1

>  <ASSIGNED LABEL>
fulfilled

$$$$
